System: Mogl
Experiment: plant injury after spraying emerged plants (Table D)
Assay type: in vivo
Parameters: scale not given here
Conditions: 1.1210 kg/ha
PROPERTY_MEASURED: plant injury rating, Mogl
Please give only the number in your answer, with no unit.

Output measured plant injury rating, Mogl for this item: COC(=O)c1c(O)nc(C(F)(F)F)c(C(=O)OC)c1CC(C)C [Compound 1]
1

Output measured plant injury rating, Mogl for this item: COC(=O)c1c(OC)nc(C(F)(F)Cl)c(C(=O)OC)c1CC(C)C [Compound 30]
1

Output measured plant injury rating, Mogl for this item: COC(=O)c1c(OC)nc(C(F)(F)F)c(C(=O)NCCCBr)c1CC(C)C [Compound 97]
0

Output measured plant injury rating, Mogl for this item: COC(=O)c1c(OC)nc(C(F)(F)F)c(C2=NCCS2)c1CC(C)C [Compound 50]
2

Output measured plant injury rating, Mogl for this item: COC(=O)c1c(OC)nc(C(F)(F)F)c(C(=O)n2cccn2)c1CC1CC1 [Compound 116]
2

----------
Test system: Quackgrass
Test: Pre-emergent herbicidal activity (Table A)
Type: in vivo
Conditions: pre-emergence, Rhqg, 11.2 kg/ha, 10-14 days, read-out: herbicidal rating (% inhibition)
For each of the compounds below, state its inhibition at 11200 g/ha.

Output measured inhibition at 11200 g/ha for this item: CCOC(=O)c1c(OC)nc(C(F)(F)F)c(C(=O)OC)c1CC(C)C
75 to 100%

Output measured inhibition at 11200 g/ha for this item: CN=C(SC)c1c(C(F)(F)F)nc(OC)c(C(=O)OC)c1CC(C)C
75 to 100%

Output measured inhibition at 11200 g/ha for this item: C=CCOc1nc(C(F)(F)F)c(C(=O)OC)c(CC(C)C)c1C(=O)OCC
25 to 49%

Output measured inhibition at 11200 g/ha for this item: CCOC(=O)C1=C(C(F)(F)F)NC(=O)C(C(N)=O)C1CC(C)C (stereo not drawn)
0 to 24%

Output measured inhibition at 11200 g/ha for this item: CCOc1nc(C(F)(F)F)c(C(=O)OC)c(CC(C)C)c1C(=O)O
0 to 24%

Output measured inhibition at 11200 g/ha for this item: COC=Nc1c(OC)nc(C(F)(F)F)c(C(=O)OC)c1CC(C)C
0 to 24%

----------
For each of the compounds below, state its inhibition at 11200 g/ha.
System: Wild Buckwheat
Test: Pre-emergent herbicidal activity (Table A)
Assay type: in vivo
Conditions: Fallopia convolvulus, pre-emergence, Wibw, 11.2 kg/ha, 10-14 days, read-out: herbicidal rating (% inhibition)

Output measured inhibition at 11200 g/ha for this item: COC(=O)c1c(OC(Cl)(Cl)Cl)nc(C(F)(F)F)c(C(=O)OC)c1CC(C)C
75 to 100%

Output measured inhibition at 11200 g/ha for this item: COC(=O)c1c(OC)nc(C(F)(F)F)c(C2=NCCCS2)c1CC(C)C
75 to 100%

Output measured inhibition at 11200 g/ha for this item: COC(=O)c1c(OC)nc(C(F)(F)F)c(C(Cl)=NCCCl)c1CC(C)C
75 to 100%

Output measured inhibition at 11200 g/ha for this item: COC(=O)c1c(OC)nc(C(F)(F)F)c(C(=O)n2cc(Cl)cn2)c1CC(C)C
50 to 74%

Output measured inhibition at 11200 g/ha for this item: COC(=O)c1c(OC)nc(C(F)(F)F)c(C(=O)n2cc(C#N)cn2)c1CC(C)C
75 to 100%

Output measured inhibition at 11200 g/ha for this item: COC(=O)c1c(OC)nc(C(F)(F)F)c(C(=O)Cl)c1CC1CC1
25 to 49%

Output measured inhibition at 11200 g/ha for this item: COc1nc(C(F)(F)F)c(C(=O)n2cccn2)c(CC(C)C)c1C(=O)SC
75 to 100%

Output measured inhibition at 11200 g/ha for this item: COc1nc(C(F)(F)F)c(CO)c(CC(C)C)c1C(=O)SC
0 to 24%

Output measured inhibition at 11200 g/ha for this item: COC(=O)c1c(OC)nc(C(F)(F)F)c(C2OCCO2)c1CC1CC1
75 to 100%

Output measured inhibition at 11200 g/ha for this item: COC(=O)c1c(OC)nc(C(F)(F)F)c(N=C2CCCO2)c1CC(C)C
75 to 100%

Output measured inhibition at 11200 g/ha for this item: COC(=O)c1c(OC)nc(C(F)(F)F)c(C(=O)N2CCCO2)c1CC(C)C
75 to 100%

Output measured inhibition at 11200 g/ha for this item: COC(=O)c1c(OC)nc(C(F)(F)F)c(C(=O)Cl)c1C1CCC1
0 to 24%

Output measured inhibition at 11200 g/ha for this item: C=C1CC(c2c(C(F)(F)F)nc(OC)c(C(=O)OC)c2CC(C)C)OC1=O (stereo not shown)
0 to 24%

Output measured inhibition at 11200 g/ha for this item: COC(=O)c1c(OC)nc(C(F)(F)F)c(C2OCCO2)c1CC(C)C
75 to 100%

Output measured inhibition at 11200 g/ha for this item: COC(=O)c1c(OC)nc(C(F)(F)F)c(C2OCCS2(=O)=O)c1CC(C)C (stereo not shown)
50 to 74%

Output measured inhibition at 11200 g/ha for this item: COC(=O)c1c(OC)nc(C(F)(F)F)c(-c2cnco2)c1CC(C)C
75 to 100%

Output measured inhibition at 11200 g/ha for this item: COC(=O)c1c(OC)nc(C(F)(F)F)c(C(=O)n2cccn2)c1CC1CC1
75 to 100%

Output measured inhibition at 11200 g/ha for this item: COC(=O)c1c(OC)nc(C(F)(F)F)c(C(=O)n2ccc(F)n2)c1C1CCC1
75 to 100%

Output measured inhibition at 11200 g/ha for this item: COC(=O)c1c(OC)nc(C(F)(F)F)c(C2SCCS2)c1CC(C)C
75 to 100%
